Attribution: patent US20260206755A1

Listed here: items and their measured mortality % 48, with TFNA-AM.
Test system: Anopheles stephensi
test_summary: Anopheles stephensi treated well plate contact test: knockdown and mortality
Format: in vivo
conditions_used: test compound 0.2 ppm plus 2 ppm TFNA-AM, after 48 hours
Supply the numeric figure in %, leaving out any unit text.

Quick one: mortality % 48, with TFNA-AM of O=[N+]([O-])c1cc(C(F)(F)F)c(Cl)c([N+](=O)[O-])c1Nc1ncc(C(F)(F)F)cc1Cl [Fluazinam] ?
20

Quick one: mortality % 48, with TFNA-AM of CC1(C)C(C=C(Cl)Cl)C1C(=O)OC(C#N)c1cccc(Oc2ccccc2)c1 (stereo not drawn) [Cypermethrin] ?
100

Quick one: mortality % 48, with TFNA-AM of CCOC(=O)CC(SP(=S)(OC)OC)C(=O)OCC (stereo not drawn) [Malathion] ?
0

Quick one: mortality % 48, with TFNA-AM of CCc1nn(C)c(C(=O)NCc2ccc(C(C)(C)C)cc2)c1Cl [Tebufenpyrad] ?
0

Quick one: mortality % 48, with TFNA-AM of CC(C)N1C(=O)N(c2ccccc2)CS/C1=N\C(C)(C)C [Buprofezin] ?
60

----------
Tested on: Anopheles stephensi
test_summary: Anopheles stephensi treated well plate contact test: knockdown and mortality
Assay type: in vivo
conditions_used: test compound 20 ppm, without TFNA-AM, after 48 hours
recorded_metric: mortality % 48, without TFNA-AM

Known results for compounds:
Quick one: mortality % 48, without TFNA-AM of CO/C=C(/C(=O)OC)c1ccccc1COc1cccc(C(F)(F)F)n1 ?
100%

Quick one: mortality % 48, without TFNA-AM of CC(C)=C[C@@H]1[C@@H](C(=O)O[C@H](C#N)c2cccc(Oc3ccccc3)c2)C1(C)C (relative stereo) [d-d, trans cyphenothrin] ?
60%

Quick one: mortality % 48, without TFNA-AM of N#Cc1ccc(CC(=NNC(=O)Nc2ccc(OC(F)(F)F)cc2)c2cccc(C(F)(F)F)c2)cc1 (mixture of isomers) ?
0%

Quick one: mortality % 48, without TFNA-AM of O=c1c(-c2cccc(C(F)(F)F)c2)c([O-])[n+](Cc2cncnc2)c2ccccn12 ?
10%

Quick one: mortality % 48, without TFNA-AM of O=C1C=C(N(Cc2ccc(Cl)nc2)CC(F)F)CO1 ?
10%

For the next question, use this compound.
Quick one: mortality % 48, without TFNA-AM of CN(C(=O)c1ccccc1)c1cccc(C(=O)Nc2c(Br)cc(C(F)(C(F)(F)F)C(F)(F)F)cc2C(F)(F)F)c1F [Broflanilide] ?
100%

----------
Tested on: Anopheles stephensi
test_summary: Anopheles stephensi treated well plate contact test: knockdown and mortality
Assay type: in vivo
conditions_used: test compound 20 ppm, without TFNA-AM, after 24 hours
recorded_metric: mortality % 24, without TFNA-AM (%)
Supply the numeric figure in %, leaving out any unit text.

Known results for compounds:
Quick one: mortality % 24, without TFNA-AM of CC(C)=C[C@@H]1[C@@H](C(=O)O[C@H](C#N)c2cccc(Oc3ccccc3)c2)C1(C)C (relative stereo) [d-d, trans cyphenothrin] ?
40

Quick one: mortality % 24, without TFNA-AM of CO/C=C(/C(=O)OC)c1ccccc1COc1cccc(C(F)(F)F)n1 ?
90

Quick one: mortality % 24, without TFNA-AM of O=c1c(-c2cccc(C(F)(F)F)c2)c([O-])[n+](Cc2cncnc2)c2ccccn12 ?
0

***
Quick one: mortality % 24, without TFNA-AM of O=C1C=C(N(Cc2ccc(Cl)nc2)CC(F)F)CO1 ?
0

Quick one: mortality % 24, without TFNA-AM of CN(C(=O)c1ccccc1)c1cccc(C(=O)Nc2c(Br)cc(C(F)(C(F)(F)F)C(F)(F)F)cc2C(F)(F)F)c1F [Broflanilide] ?
100

Quick one: mortality % 24, without TFNA-AM of N#Cc1ccc(CC(=NNC(=O)Nc2ccc(OC(F)(F)F)cc2)c2cccc(C(F)(F)F)c2)cc1 (mixture of isomers) ?
0
